Biological target: UniProt P08183
Sequence (P08183 whole entry): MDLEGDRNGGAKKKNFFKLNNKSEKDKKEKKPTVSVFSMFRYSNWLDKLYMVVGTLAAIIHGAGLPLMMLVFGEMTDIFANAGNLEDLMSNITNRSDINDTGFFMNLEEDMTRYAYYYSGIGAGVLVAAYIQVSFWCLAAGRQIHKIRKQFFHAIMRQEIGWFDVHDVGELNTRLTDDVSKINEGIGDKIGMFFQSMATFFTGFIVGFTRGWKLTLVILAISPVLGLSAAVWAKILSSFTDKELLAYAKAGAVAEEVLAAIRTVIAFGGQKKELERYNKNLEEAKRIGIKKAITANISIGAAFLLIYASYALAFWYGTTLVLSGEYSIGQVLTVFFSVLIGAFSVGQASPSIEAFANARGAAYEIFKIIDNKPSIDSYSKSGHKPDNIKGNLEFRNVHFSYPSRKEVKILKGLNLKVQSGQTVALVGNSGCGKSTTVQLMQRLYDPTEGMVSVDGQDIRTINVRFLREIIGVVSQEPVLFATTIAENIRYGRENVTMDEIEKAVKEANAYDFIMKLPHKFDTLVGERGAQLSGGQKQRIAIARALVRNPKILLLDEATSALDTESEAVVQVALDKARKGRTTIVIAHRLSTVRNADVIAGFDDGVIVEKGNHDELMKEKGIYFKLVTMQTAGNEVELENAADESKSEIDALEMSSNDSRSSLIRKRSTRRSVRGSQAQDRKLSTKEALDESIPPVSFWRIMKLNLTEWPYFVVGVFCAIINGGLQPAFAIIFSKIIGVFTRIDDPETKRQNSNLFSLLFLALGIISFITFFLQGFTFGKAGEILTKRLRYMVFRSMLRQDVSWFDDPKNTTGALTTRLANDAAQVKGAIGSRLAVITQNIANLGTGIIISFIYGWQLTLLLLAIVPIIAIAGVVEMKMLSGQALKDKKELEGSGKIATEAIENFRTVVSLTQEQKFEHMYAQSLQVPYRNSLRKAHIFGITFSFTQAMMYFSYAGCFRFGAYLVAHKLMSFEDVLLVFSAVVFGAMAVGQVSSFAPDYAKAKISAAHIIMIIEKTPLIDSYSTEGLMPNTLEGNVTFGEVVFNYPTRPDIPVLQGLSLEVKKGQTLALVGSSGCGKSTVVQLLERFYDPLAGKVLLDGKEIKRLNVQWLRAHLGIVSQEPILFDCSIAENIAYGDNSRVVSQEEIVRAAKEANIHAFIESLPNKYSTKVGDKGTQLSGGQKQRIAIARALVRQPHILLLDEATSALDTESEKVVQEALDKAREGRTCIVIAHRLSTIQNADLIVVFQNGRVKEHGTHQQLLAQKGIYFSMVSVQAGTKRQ
Assay: MDCK-MDR1 assay (in vitro brain penetration)
Format: in vitro ADME
Details: human; MDCK-MDR1, A to B; read-out: MDCK MDR1 Papp AB
Property: Papp A→B; scope: individual compounds

Please review the following examples before continuing.
- MOLECULAR STRING: "CC(C)(CO)n1cc(C(=O)c2cncc(NC(=O)Cn3cc(C(F)(F)F)nn3)c2)c2cnc(N)nc21"
  TARGET: "UniProt P08183"
  Papp A→B: "< 1 ×10⁻⁶ cm/s"
- MOLECULAR STRING: "CC(C)(C)n1cc(C(=O)c2cncc(NC(=O)Cn3cc(C(F)(F)F)nn3)c2)c2cncnc21"
  TARGET: "UniProt P08183"
  Papp A→B: "< 1 ×10⁻⁶ cm/s"
- MOLECULAR STRING: "C[C@@H](CO)n1cc(C(=O)c2cncc(NC(=O)Cc3ccc(Cl)cc3)c2)c2cncnc21"
  TARGET: "UniProt P08183"
  Papp A→B: "< 1 ×10⁻⁶ cm/s"
- MOLECULAR STRING: "CC(C)(CO)n1cc(C(=O)c2cncc(NC(=O)Cn3ccc(C4CC4)n3)c2)c2cnc(N)nc21"
  TARGET: "UniProt P08183"
  Papp A→B: "< 1 ×10⁻⁶ cm/s"
- MOLECULAR STRING: "CC(C)(C)n1cc(C(=O)c2cncc(NC(=O)Cc3ccc(Cl)cn3)c2)c2cncnc21"
  TARGET: "UniProt P08183"
  Papp A→B: "6.9 ×10⁻⁶ cm/s"
- MOLECULAR STRING: "CC(C)(C)n1cc(C(=O)c2cncc(NC(=O)Cn3cc(C4CC4)cn3)c2)c2cncnc21"
  TARGET: "UniProt P08183"
  Papp A→B: "5.6 ×10⁻⁶ cm/s"

q: State, in one line, measured Papp A→B of `CC(C)(CO)n1cc(C(=O)c2cncc(NC(=O)Cc3ccc(F)cc3F)c2)c2cnc(N)nc21`
a: < 1 ×10⁻⁶ cm/s

q: Fill in Papp A→B for record `CC(C)(CO)n1cc(C(=O)c2cncc(NC(=O)Cn3nc4ccccc4n3)c2)c2cnc(N)nc21`
a: < 1 ×10⁻⁶ cm/s

q: Answer with the recorded Papp A→B for the compound listed here: `C[C@@H](CO)n1cc(C(=O)c2cncc(NC(=O)Cc3ccc(Cl)cn3)c2)c2cncnc21`
a: < 1 ×10⁻⁶ cm/s

q: Identify measured Papp A→B associated with `CC(C)(CO)n1cc(C(=O)c2cncc(NC(=O)Cc3ccc(F)cn3)c2)c2cnc(N)nc21`
a: < 1 ×10⁻⁶ cm/s

q: Give recorded Papp A→B. `C[C@@H](CO)n1cc(C(=O)c2cncc(NC(=O)Cn3cc(C(F)(F)F)nn3)c2)c2cncnc21`
a: < 1 ×10⁻⁶ cm/s

q: Determine from records and report Papp A→B for `C[C@H](CO)n1cc(C(=O)c2cncc(NC(=O)Cc3ccc(Cl)cn3)c2)c2cncnc21`
a: < 1 ×10⁻⁶ cm/s

q: Answer with reported Papp A→B of `C[C@H](CO)n1cc(C(=O)c2cncc(NC(=O)Cc3ccc(F)cn3)c2)c2cncnc21`
a: < 1 ×10⁻⁶ cm/s

q: Read off the recorded Papp A→B for `CC(C)(CO)n1cc(C(=O)c2cncc(NC(=O)Cc3ccc(C(F)(F)F)cc3)c2)c2cnc(N)nc21`
a: < 1 ×10⁻⁶ cm/s

q: Identify Papp A→B associated with the compound `Cc1cc(C(F)(F)F)nn1CC(=O)Nc1cncc(C(=O)c2cn([C@@H](C)CO)c3ncncc23)c1`
a: < 1 ×10⁻⁶ cm/s

q: Note Papp A→B for the compound shown: `C[C@H](CO)n1cc(C(=O)c2cncc(NC(=O)Cn3ccc(C(F)(F)F)n3)c2)c2cncnc21`
a: < 1 ×10⁻⁶ cm/s
